For reference, the following pIC50 results for Intestinal-type alkaline phosphatase (Bos taurus, UniProt P19111) were taken from various sources.
Answers are plain numbers, as −log10 of the molar value.

In the examples that follow, each entry is paired with its recorded pIC50.
NS(=O)(=O)c1ccc(CNC(=O)c2ccc(F)cc2)cc1	5.93
Cc1ccc(S(=O)(=O)NCCc2ccc(S(N)(=O)=O)cc2)cc1	5.53
COC1Oc2ccc(C)cc2C(=O)/C1=C\Nc1cccc(S(N)(=O)=O)c1 (racemic)	5.18
CCCCCc1cc(=O)c2cc([N+](=O)[O-])ccc2n1Cc1ccc(OC)cc1	5.86

Go through the list and state pIC50 for each entry.
1. CCCCCc1cc(=O)c2cc([N+](=O)[O-])ccc2[nH]1
2. NS(=O)(=O)c1cccc(NC(=O)c2ccc(F)cc2)c1

Result:
[4.78, 5.01]

====

For reference, the following pIC50 results for Intestinal-type alkaline phosphatase (Bos taurus, UniProt P19111) were taken from various sources.
One number for each entry, as −log10 of the molar value.

In the examples that follow, each entry is paired with its recorded pIC50.
Cc1ccc(-c2c(Br)c(=O)c3cc([N+](=O)[O-])ccc3n2C(C)c2ccccc2)cc1 (centres undefined)	5.61
COC1Oc2ccc(F)cc2C(=O)/C1=C\Nc1ccccc1S(N)(=O)=O (racemic)	4.99

Go through the list and state pIC50 for each entry.
1. COc1ccc(Cn2c(-c3ccc(C)cc3)c(-c3ccccc3C=O)c(=O)c3cc([N+](=O)[O-])ccc32)cc1
2. NS(=O)(=O)c1ccc(CNS(=O)(=O)c2ccc(F)cc2)cc1

Result:
3.72
5.87
